These measurements were taken from paper PMC8272148.

The next entries give measured IC50 for soybean lipoxygenase 1-B (Glycine max).
Give the quantity in µM, number only.

Example molecules with recorded IC50:
molecule	IC50 (µM)
CC(C(=O)O)c1cccc(C(=O)c2ccccc2)c1 (stereo not shown) [Ketoprofen, ketoprofen, reference compound]	220
CCOC(=O)C(COC(=O)C(C)c1cccc(C(=O)c2ccccc2)c1)NC(=O)/C=C/c1cc(C(C)(C)C)c(O)c(C(C)(C)C)c1 (stereo not shown)	90

Switching to the query record.
Query :: Notebook: pull reported IC50 for soybean lipoxygenase 1-B (Glycine max), entry CCOC(=O)C(COC(=O)C(C)c1ccc(CC(C)C)cc1)NC(=O)c1cc(C(C)(C)C)c(O)c(C(C)(C)C)c1 (stereo not shown)
Result :: 13

---

# Tested on: rat hepatic microsomal membrane lipid peroxidation
# methodDescription: Inhibition of rat hepatic microsomal membrane lipid peroxidation (ferrous ascorbate induced, TBA reactive material)
# Format: biochemical
# conditionDetails: rat hepatic microsomal membrane, after 45 min of incubation
property: IC50
Your answer should be a number followed by the unit of measure.

molecule	IC50
Cc1c(C)c2c(c(C)c1O)CCC(C)(C(=O)NC(CO)C(=O)O)O2 (stereo not shown)	150 µM

Query :: # lookup: IC50 of CCOC(=O)C(CO)NC(=O)/C=C/c1cc(C(C)(C)C)c(O)c(C(C)(C)C)c1 (stereo not shown)
Result :: 22 µM

Query :: # lookup: IC50 of CCOC(=O)C(COC(=O)C(C)c1cccc(C(=O)c2ccccc2)c1)NC(=O)C1(C)CCc2c(C)c(O)c(C)c(C)c2O1 (stereo not shown)
Result :: 2.8 µM

Query :: # lookup: IC50 of CCOC(=O)C(COC(=O)C(C)c1ccc(CC(C)C)cc1)NC(=O)C1(C)CCc2c(C)c(O)c(C)c(C)c2O1 (stereo not shown)
Result :: 3.4 µM

---

Some compounds, each annotated with its measured IC50.
# Test system: rat hepatic microsomal membrane lipid peroxidation
# methodDescription: Inhibition of rat hepatic microsomal membrane lipid peroxidation (ferrous ascorbate induced, TBA reactive material)
# Assay type: biochemical
# conditionDetails: rat hepatic microsomal membrane, after 45 min of incubation
Give the quantity in µM, number only.

compound	IC50 [µM]
CC(C)(C)c1cc(/C=C/C(=O)NC(CO)C(=O)O)cc(C(C)(C)C)c1O (stereo not shown)	80
CCOC(=O)C(CO)NC(=O)c1cc(C(C)(C)C)c(O)c(C(C)(C)C)c1 (stereo not shown)	163
Cc1c(C)c2c(c(C)c1O)CCC(C)(C(=O)O)O2 (stereo not shown) [Trolox, reference compound]	25

Switching to the query record.
Query :: # lookup: IC50 of CCOC(=O)C(CO)NC(=O)C1(C)CCc2c(C)c(O)c(C)c(C)c2O1 (stereo not shown)
Result :: 7.3

---

Some compounds, each annotated with its measured inhibition at 100 µM.
# testSystem: soybean lipoxygenase 1-B (Glycine max)
# Sequence (P08170 whole entry): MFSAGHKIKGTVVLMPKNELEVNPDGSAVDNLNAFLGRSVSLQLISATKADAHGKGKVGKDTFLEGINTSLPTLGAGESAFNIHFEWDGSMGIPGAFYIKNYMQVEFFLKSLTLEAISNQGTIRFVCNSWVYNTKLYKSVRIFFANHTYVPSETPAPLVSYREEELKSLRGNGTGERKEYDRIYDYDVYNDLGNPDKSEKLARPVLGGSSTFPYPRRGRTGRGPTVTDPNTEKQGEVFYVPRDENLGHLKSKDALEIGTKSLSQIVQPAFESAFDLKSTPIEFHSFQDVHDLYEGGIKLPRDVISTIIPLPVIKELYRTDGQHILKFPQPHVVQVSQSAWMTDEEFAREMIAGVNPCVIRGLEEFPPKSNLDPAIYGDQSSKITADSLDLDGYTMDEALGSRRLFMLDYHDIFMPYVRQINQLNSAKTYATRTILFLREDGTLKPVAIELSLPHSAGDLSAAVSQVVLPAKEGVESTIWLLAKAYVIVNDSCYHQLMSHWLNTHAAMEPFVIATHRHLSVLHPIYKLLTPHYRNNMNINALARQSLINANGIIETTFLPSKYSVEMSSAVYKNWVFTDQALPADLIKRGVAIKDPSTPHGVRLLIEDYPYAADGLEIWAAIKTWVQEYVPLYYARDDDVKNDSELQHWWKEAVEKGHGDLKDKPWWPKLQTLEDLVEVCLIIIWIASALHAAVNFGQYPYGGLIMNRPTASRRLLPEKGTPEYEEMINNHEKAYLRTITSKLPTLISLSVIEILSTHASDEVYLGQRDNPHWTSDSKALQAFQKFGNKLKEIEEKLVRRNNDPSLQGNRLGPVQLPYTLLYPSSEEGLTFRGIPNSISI
# methodDescription: In vitro inhibition of soybean lipoxygenase
# Assay type: biochemical
# conditionDetails: 100 μM compound, linoleic acid (100 μM) as substrate, after 7 min of incubation; read-out: Lipoxygenase percent inhibition at 100 μM
Give the quantity in %, number only.

Example compounds with recorded inhibition at 100 µM:
compound	quantitativeResult
CCOC(=O)C(COC(=O)C(C)c1cccc(C(=O)c2ccccc2)c1)NC(=O)C1(C)CCc2c(C)c(O)c(C)c(C)c2O1 (stereo not drawn) [Compound 10]	23
CC(C)(C)c1cc(C(=O)NC(CO)C(=O)O)cc(C(C)(C)C)c1O (stereo not drawn) [Compound 2]	15
Cc1c(C)c2c(c(C)c1O)CCC(C)(C(=O)NC(CO)C(=O)O)O2 (stereo not drawn) [Compound 1]	30

Query :: # lookup: inhibition at 100 µM of CC(C)(C)c1cc(/C=C/C(=O)NC(CO)C(=O)O)cc(C(C)(C)C)c1O (stereo not drawn) [Compound 3]
Result :: 20

Query :: # lookup: inhibition at 100 µM of CCOC(=O)C(CO)NC(=O)C1(C)CCc2c(C)c(O)c(C)c(C)c2O1 (stereo not drawn) [Compound 4]
Result :: 15
